# Test system: trypsin
# Construct: gene PRSS1
# Assay Text: Proteolysis of peptoids and peptides by trypsin
# Type: in vitro ADME
# Test Parameters: trypsin (isolated protease) in Tris buffer; trypsin, 5 min, 37° C., pH 8.0; read-out: % Area at 280 nm Remaining of Parent Peak by RP-HPLC
Result Type: remaining at 5 min, 0.48 mg/mL (%)

CC(C)CN(CC(=O)N(CC(=O)O)CC(=O)N(CC(=O)N(CCO)CC(=O)N(CCN)CC(=O)NCC(=O)O)Cc1ccccc1)C(=O)OCC1c2ccccc2-c2ccccc21 [PEPTOID, FMOC-L*D*F*S*K*G-OH] :: 100

----------
# System: chymotrypsin
# Assay Text: Proteolysis of peptoids and peptides by chymotrypsin
# Type: in vitro ADME
# Test Parameters: chymotrypsin (isolated protease) in Tris buffer; chymotrypsin, 5 min, 37° C., pH 8.0; read-out: % Area at 280 nm Remaining of Parent Peak by RP-HPLC
Result Type: remaining at 5 min, 0.48 mg/mL (%)

CC(C)CN(CC(=O)N(CC(=O)O)CC(=O)N(CC(=O)N(CCO)CC(=O)N(CCN)CC(=O)NCC(=O)O)Cc1ccccc1)C(=O)OCC1c2ccccc2-c2ccccc21 :: 100

From: patent US6075121A
